# credit: PubChem BioAssay (NCI)

tested on: SF-539 CNS; assay: NCI-60 one-dose screen, 48 h; conditions: 10 µM unless noted
Compounds without any hit were thinned out: in the full panel of roughly 83,000, 20% have a hit. Active and inactive are the calls of the source. The calls were made as follows: active = growth percent below 10; inactive = the rest.
Hi! Could you answer with just one of these? active, inactive

Q: Assay result, entry COc1cnc2c(c1)C(=O)c1c-2n(CCCNC(C)C)c(=O)c2cc([N+](=O)[O-])ccc12 — outcome?
Result: active

Q: Assay result, entry Cc1cc(N2CCN(C)CC2)nc(N(CCNc2ccnc3cc(Cl)ccc23)Cc2ccco2)n1 — outcome?
Result: active

Q: Assay result, entry O=C(Nc1ccc(/C=C2\SC(=O)N(Cc3ccc(OC(F)(F)F)cc3)C2=O)cc1)c1ccc(Cl)c([N+](=O)[O-])c1 — outcome?
Result: inactive

Q: Assay result, entry N#CCCCCCn1c2ccccc2c2c3[nH]c(=O)[nH]c(=O)c3c3c4ccccc4n(CCCCCC#N)c3c21 — outcome?
Result: active

Q: Assay result, entry CC(=O)O[C@H]1CC[C@]2(C)[C@H]3C(=O)C=C4[C@@H]5C[C@](C)(C(=O)N6CCCNCC6)CC[C@]5(C)CC[C@@]4(C)[C@]3(C)CC[C@H]2C1(C)C — outcome?
Result: active

Q: Assay result, entry CC(=O)O[C@H]1CC[C@@]2(C)C(=CC[C@@H]3[C@@H]2CC[C@]2(C)C(=O)N(O)C(=O)C[C@@H]32)C1 — outcome?
Result: inactive

Q: Assay result, entry COC(=O)[C@@H]1[C@H]2C[C@H]3c4[nH]c5cc(OC)ccc5c4CCN3C[C@@H]2C[C@H](OC(=O)/C=C/c2ccnc(OC)c2)[C@H]1OC — outcome?
Result: inactive

---

system: MALME-3M melanoma; assay: NCI-60 one-dose screen, 48 h (100 = growth as untreated, 0 = no growth, -100 = all killed); settings: 10 µM unless noted
About 83,000 compounds went through this panel and 20% of them were active in at least one assay; those are over-represented in the sample as a whole.
MEASUREMENT_LABEL: growth (%)
API: value field is a number in %; no unit string.

Q: # value lookup — system MALME-3M melanoma, readout growth, item Cn1c2ccccc2c2c3c(c4c5cccnc5[nH]c4c21)C(=O)N(O)C3=O
Result: 58.2

Q: # value lookup — system MALME-3M melanoma, readout growth, item Cc1csc(Nc2nc(-c3ccc(Cl)cc3)nc(C(Cl)(Cl)Cl)n2)n1
Result: 99.9

Q: # value lookup — system MALME-3M melanoma, readout growth, item Cc1ccc(Cc2cnc(NC(=O)/C=C/c3cccc(C)c3)s2)cc1
Result: 31.4

Q: # value lookup — system MALME-3M melanoma, readout growth, item COc1ccc(-c2nc(SCC(=O)Nc3ccc(C(C)=O)cc3)[nH]c(=O)c2C#N)cc1
Result: 103

Q: # value lookup — system MALME-3M melanoma, readout growth, item N#Cc1c(-c2ccco2)nc2c(c(-c3ccccc3)nn2-c2ccccc2)c1-c1ccc(O)cc1
Result: 35

Q: # value lookup — system MALME-3M melanoma, readout growth, item Nc1c(C(=O)Nc2cccc3ccccc23)sc2nc3c(cc12)CCCC3
Result: 78

Q: # value lookup — system MALME-3M melanoma, readout growth, item Nc1ccccc1NC(=O)c1ccc(CN2CCC/C(=C\c3ccccn3)C2=O)cc1
Result: 20.9

Q: # value lookup — system MALME-3M melanoma, readout growth, item Cc1nnc2nc(N)[nH]n2c1=O
Result: 93.9

Q: # value lookup — system MALME-3M melanoma, readout growth, item N=c1ccc2nc3c(cc(N)c4ccccc43)oc-2c1
Result: -91.5

Q: # value lookup — system MALME-3M melanoma, readout growth, item Cc1cccc(C)c1NC(=O)CSC(=S)N1CCCCC1
Result: 88.4

Q: # value lookup — system MALME-3M melanoma, readout growth, item c1ccc(C2Cc3ccccc3C2=NC2CCCCC2)cc1 (centres undefined)
Result: 116

Q: # value lookup — system MALME-3M melanoma, readout growth, item COc1ccc2c(c1)c(-c1nc(-c3c[nH]c4ncccc34)cs1)cn2CCNC(=O)OC(C)(C)C
Result: 103

Q: # value lookup — system MALME-3M melanoma, readout growth, item CCCCC[C@H]1C/C=C2/C(=O)C(Cl)=C[C@@H]2C/C=C\CCCC(=O)O1
Result: -35.2

Q: # value lookup — system MALME-3M melanoma, readout growth, item C#CCn1c(C)cc(C)c(C#N)c1=O
Result: 96.9

Q: # value lookup — system MALME-3M melanoma, readout growth, item C=C(C)[C@@H]1CC[C@]2(C(=O)O)CC[C@]3(C)[C@H](CC[C@@H]4[C@@]5(C)C/C(=C/c6cccc(I)c6)C(=O)C(C)(C)[C@@H]5CC[C@]43C)[C@@H]12
Result: 53.3

Q: # value lookup — system MALME-3M melanoma, readout growth, item CCCC1CCCCN1C(=O)OCC(C)C (centres undefined)
Result: 107

Q: # value lookup — system MALME-3M melanoma, readout growth, item O=C1C(=O)c2ccccc2C(O)=C1CCCc1ccc(C2CCCCC2)cc1
Result: 87.9

Q: # value lookup — system MALME-3M melanoma, readout growth, item COC(=O)[C@]12CC[C@@H](C)[C@H](C)[C@@H]1C1=CC[C@@H]3[C@@]4(C)C=C(O)C(=O)C(C)=C4CC[C@@]3(C)[C@]1(C)CC2
Result: 86.2

Q: # value lookup — system MALME-3M melanoma, readout growth, item O=C1/C(=C\c2ccc(Br)o2)SC(=S)N1CCc1ccc(O)cc1
Result: 69

Q: # value lookup — system MALME-3M melanoma, readout growth, item O=C(/C=C/c1cccc2ccccc12)Nc1ncc(Cc2ccccc2)s1
Result: 21.7

Q: # value lookup — system MALME-3M melanoma, readout growth, item COc1ccc(-c2nc(Nc3ccc(-c4nc5ccccc5[nH]4)cc3)nc(N3CCOCC3)n2)cc1
Result: -65.7

Q: # value lookup — system MALME-3M melanoma, readout growth, item Cc1ccc2oc(=O)cc(-c3sc(N4CCCCC4)nc3-c3ccccc3)c2c1
Result: 86

Q: # value lookup — system MALME-3M melanoma, readout growth, item C=C(C)[C@@H]1CC[C@]2(C(=O)OC)CC[C@]3(C)[C@H](CC[C@@H]4[C@@](C)(CC/C(N)=N/O)[C@H](C(=C)C)CC[C@]43C)[C@@H]12
Result: 98.2

Q: # value lookup — system MALME-3M melanoma, readout growth, item Cc1ccccc1-c1nc(C(Cl)Cl)nc2cc(-c3ccccc3)nn12
Result: 86.2

Q: # value lookup — system MALME-3M melanoma, readout growth, item O=C1c2cc3c(cc2-c2c1c1ccc(F)cc1c(=O)n2CCCN1CCOCC1)OCO3
Result: 101

Q: # value lookup — system MALME-3M melanoma, readout growth, item Cc1ccc(C)c2c1CCC2C(C)C (centres undefined)
Result: 101

Q: # value lookup — system MALME-3M melanoma, readout growth, item CN(CSc1ccc(Cl)cc1)c1ccc(CSc2ccc(Cl)cc2)cc1
Result: 102

Q: # value lookup — system MALME-3M melanoma, readout growth, item Clc1ccc(Cn2cc(-c3nc4ccc(Br)nc4n3Cc3ccc(Cl)cc3)c3cccnc32)cc1
Result: 92.4

Q: # value lookup — system MALME-3M melanoma, readout growth, item Cc1cc(N2CCCC2)nc(N(CCNc2ccnc3cc(Cl)ccc23)Cc2ccco2)n1
Result: 28.2

Q: # value lookup — system MALME-3M melanoma, readout growth, item Cc1ccnc2c(OCc3ccccc3)cccc12
Result: 84.4

Q: # value lookup — system MALME-3M melanoma, readout growth, item c1ccc2[nH]c(-c3cc(-c4ccc5c(c4)OCO5)n[nH]3)nc2c1
Result: 38.2

Q: # value lookup — system MALME-3M melanoma, readout growth, item Fc1ccc2c(c1)c(-c1nc(-c3c[nH]c4ncccc34)cs1)cn2CCCN1CCCCC1
Result: 49.8

Q: # value lookup — system MALME-3M melanoma, readout growth, item Cc1ccc(-c2nc([P+](c3ccccc3)(c3ccccc3)c3ccccc3)c(N3C[C@H]4C[C@H](C3)c3cccc(=O)n3C4)o2)cc1
Result: 74.5

Q: # value lookup — system MALME-3M melanoma, readout growth, item Cc1ccc(S(=O)(=O)Nc2ccc(-c3cc(-c4cccc(F)c4)c(C#N)c(=O)[nH]3)cc2)cc1
Result: 92.6

Q: # value lookup — system MALME-3M melanoma, readout growth, item C=C(C)[C@@H]1CC[C@]2(CN)CC[C@]3(C)[C@H](CC[C@@H]4[C@@](C)(CCCN)[C@H](C(=C)C)CC[C@]43C)[C@@H]12
Result: 80.2

Q: # value lookup — system MALME-3M melanoma, readout growth, item O=C(NCN1C(=O)c2cccc3cccc(c23)C1=O)N1CCC(Cc2ccccc2)CC1
Result: 96.6

Q: # value lookup — system MALME-3M melanoma, readout growth, item Cc1ccc(-c2nn(Cc3cn(-c4cc(C)nc5ccccc45)nn3)c3ncnc(N)c23)cc1
Result: 52.5

Q: # value lookup — system MALME-3M melanoma, readout growth, item C=C(C)[C@@H]1CC[C@]2(C(=O)O)CC[C@]3(C)[C@H](CC[C@@H]4[C@@]5(C)C/C(=C/c6ccc(OC)cc6)C(=O)C(C)(C)[C@@H]5CC[C@]43C)[C@@H]12
Result: 42.2

Q: # value lookup — system MALME-3M melanoma, readout growth, item COc1ccccc1CNc1nc(N)nc2[nH]c3ccc(O)cc3c12
Result: 53.6
